In this section, each of the compounds is paired with its reported ABCB6 Expression Difference.
Tested on: ABCB6
Assay: ABCB6 mRNA expression (real-time PCR)
Type: cell-based, human
Conditions: A2780/DOX, 10 µM combined with doxorubicin at IC25, 48 h
The reply should be a number, written without any unit.

These recorded examples may help you get a feel for the data.
The recorded ABCB6 Expression Difference for entry COc1cc(C2Oc3cc(-c4oc5cc(O)cc(O)c5c(=O)c4O)ccc3OC2CO)ccc1O (centres unmarked) [Dehydrosilybin AB, 2,3-dehydrosilybin] equals 1.262

The recorded ABCB6 Expression Difference for entry COc1cc([C@@H]2Oc3cc(-c4oc5cc(O)cc(O)c5c(=O)c4O)ccc3O[C@H]2CO)ccc1O [Dehydrosilybin B, 2,3-dehydrosilybin B] equals 1.343

The recorded ABCB6 Expression Difference for entry COc1cc(C2Oc3cc([C@H]4Oc5cc(O)cc(O)c5C(=O)[C@@H]4O)ccc3OC2CO)ccc1O (some centres unmarked) [Silybin AB, silybin] equals 1.527

Next:
The recorded ABCB6 Expression Difference for entry COc1cc([C@H]2Oc3cc([C@H]4Oc5cc(O)cc(O)c5C(=O)[C@@H]4O)ccc3O[C@@H]2CO)ccc1O [Silybin A, silybin A] equals 1.665

The recorded ABCB6 Expression Difference for entry COc1cc([C@H]2Oc3cc(-c4oc5cc(O)cc(O)c5c(=O)c4O)ccc3O[C@@H]2CO)ccc1O [Dehydrosilybin A, 2,3-dehydrosilybin A] equals 1.149

----------
In this section, each of the molecules is paired with its reported ABCD2 Expression Difference.
Test system: ABCD2
Assay: ABCD2 mRNA expression (real-time PCR)
Format: cell-based, human
Conditions: A2780/DOX, 10 µM combined with doxorubicin at IC25, 48 h
Protocol: The A2780/DOX cell line was seeded into 5 cm Petri dishes with DMEM medium at 1 × 10^5 cell/mL. […] After 48 h of treatment, the cells were washed with PBS and harvested using the standard trypsin-EDTA procedure. The harvested cells were centrifuged (3200× g; 10 min, 4 °C). […] A Quant-iT RiboGreen RNA Assay Kit (Invitrogen) was used to determine the RNA concentration using the Infinite M200 plate reader (Tecan, Männedor, Switzerland). […]
The reply should be a number, written without any unit.

The recorded ABCD2 Expression Difference for entry COc1cc([C@@H]2Oc3cc([C@H]4Oc5cc(O)cc(O)c5C(=O)[C@@H]4O)ccc3O[C@H]2CO)ccc1O equals 0.448

The recorded ABCD2 Expression Difference for entry COc1cc([C@H]2Oc3cc(-c4oc5cc(O)cc(O)c5c(=O)c4O)ccc3O[C@@H]2CO)ccc1O [Dehydrosilybin A, 2,3-dehydrosilybin A] equals 0.698

The recorded ABCD2 Expression Difference for entry COc1cc([C@@H]2Oc3cc(-c4oc5cc(O)cc(O)c5c(=O)c4O)ccc3O[C@H]2CO)ccc1O [Dehydrosilybin B, 2,3-dehydrosilybin B] equals 0.733

Next:
The recorded ABCD2 Expression Difference for entry COc1cc([C@H]2Oc3cc([C@H]4Oc5cc(O)cc(O)c5C(=O)[C@@H]4O)ccc3O[C@@H]2CO)ccc1O equals 0.426

The recorded ABCD2 Expression Difference for entry COc1cc(C2Oc3cc([C@H]4Oc5cc(O)cc(O)c5C(=O)[C@@H]4O)ccc3OC2CO)ccc1O (stereo partly drawn) equals 0.494

The recorded ABCD2 Expression Difference for entry COc1cc(C2Oc3cc(-c4oc5cc(O)cc(O)c5c(=O)c4O)ccc3OC2CO)ccc1O (stereo not drawn) [Dehydrosilybin AB, 2,3-dehydrosilybin] equals 0.712

----------
Tested on: IL-6
Assay: IL-6 release by LPS-induced macrophages (ELISA)
Type: cell-based, mouse
Settings: compound 15 µM; untreated LPS control 1148 ± 35
Marks after values point to notes of the source that are not given here.
In this section, each of the compounds is paired with its reported IL-6 (pg/mL).

These recorded examples may help you get a feel for the data.
The recorded IL-6 (pg/mL) for entry COc1cc([C@H]2Oc3cc([C@H]4Oc5cc(O)cc(O)c5C(=O)[C@@H]4O)ccc3O[C@@H]2CO)ccc1O equals 271 ± 15 ^c pg/mL

The recorded IL-6 (pg/mL) for entry COc1cc([C@@H]2Oc3cc([C@H]4Oc5cc(O)cc(O)c5C(=O)[C@@H]4O)ccc3O[C@H]2CO)ccc1O equals 166 ± 6 ^b pg/mL

The recorded IL-6 (pg/mL) for entry COc1cc([C@H]2Oc3cc(-c4oc5cc(O)cc(O)c5c(=O)c4O)ccc3O[C@@H]2CO)ccc1O [Dehydrosilybin A, 2,3-dehydrosilybin A] equals 79 ± 8 ^a pg/mL

Next:
The recorded IL-6 (pg/mL) for entry COc1cc(C2Oc3cc(-c4oc5cc(O)cc(O)c5c(=O)c4O)ccc3OC2CO)ccc1O (stereo not drawn) [Dehydrosilybin AB, 2,3-dehydrosilybin] equals 441 ± 19 ^d pg/mL

The recorded IL-6 (pg/mL) for entry COc1cc([C@@H]2Oc3cc(-c4oc5cc(O)cc(O)c5c(=O)c4O)ccc3O[C@H]2CO)ccc1O [Dehydrosilybin B, 2,3-dehydrosilybin B] equals 301 ± 9 ^c pg/mL

The recorded IL-6 (pg/mL) for entry COc1cc(C2Oc3cc([C@H]4Oc5cc(O)cc(O)c5C(=O)[C@@H]4O)ccc3OC2CO)ccc1O (stereo partly drawn) equals 173 ± 5 ^b pg/mL
